Assignment: determine reported EC50 for the given compounds.
Molecular target: CB2 (Homo sapiens, UniProt P34972)
Construct: expressed in transfected cells; host or cells: HEK293T cells, calcium phosphate transfection, membrane preparation
Sequence (P34972 whole entry): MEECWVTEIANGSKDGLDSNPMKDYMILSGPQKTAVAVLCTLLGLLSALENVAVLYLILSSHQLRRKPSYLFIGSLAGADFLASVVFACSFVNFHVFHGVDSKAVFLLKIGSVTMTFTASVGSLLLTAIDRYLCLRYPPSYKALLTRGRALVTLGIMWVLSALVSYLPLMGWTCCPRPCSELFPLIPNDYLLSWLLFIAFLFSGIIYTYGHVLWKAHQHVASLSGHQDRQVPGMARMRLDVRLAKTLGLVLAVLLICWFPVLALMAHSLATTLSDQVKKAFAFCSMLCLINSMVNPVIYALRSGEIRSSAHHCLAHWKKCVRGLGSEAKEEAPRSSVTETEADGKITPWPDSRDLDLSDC
Assay: [35S]GTPγS binding assay (G-protein coupling), CB2 containing HEK293T cell membrane
Format: biochemical
Conditions: stimulation of [35S]GTPγS binding; mean ± S.D.
State just the number; it will be interpreted in nM.

Please give the measured EC50 for this compound: CCOC(=O)c1ccccc1NC(=O)CN(c1ccc(C)cc1C)S(=O)(=O)c1ccccc1
11

Please give the measured EC50 for this compound: CCOC(=O)c1ccccc1NC(=O)CN(c1cc(C)ccc1C)S(=O)(=O)c1ccccc1
10

Please give the measured EC50 for this compound: CCOC(=O)c1ccccc1NC(=O)CN(c1c(C)cccc1C)S(=O)(=O)c1ccccc1
24
